test system: PCT; test: Sensitivity and linear range for PCT detection of preferred small subunits (Example 5); format: biochemical, human; details: PCT 1 (pg/ml); normalized
measure: luminescence value

# inputSequence, quantitativeReadout
rows = [
    ("VSGYRLFDKKS [RC-187]", 4944),
    ("VEGYRLFDKVS [RC-215]", 5095),
    ("VDGWRLFDKKS [RC-224]", 5021),
    ("VTGYRLFEEIL [P114, reference compound]", 5324),
    ("VEGYRLFDRKS [RC-218]", 4937),
    ("VEGYRIFEKKW [RC-286]", 4670),
    ("VSGYRLFDKKW [RC-099]", 5106),
    ("VDGYRLFEKVS [RC-263]", 5132),
    ("VSGYRLFDKVS [RC-178]", 4911),
]

Sourced from patent EP4700040A1
